Tested on: BT-549 breast
Test: NCI-60 one-dose screen, 48 h
Details: 10 µM unless noted
Compounds without any hit were thinned out: in the full panel of roughly 83,000, 20% have a hit. The source made the active and inactive calls. The calls were made as follows: active = growth percent below 10; inactive = the rest.
One label from this list, please: true (1) for active, false (0) for inactive

Examples with answers:
| COMPOUND | ASSIGNED CLASS |
| --- | --- |
| Cc1c(Cn2c(C)nc3c(C(=O)O)cc(N4CCOCC4)cc32)cccc1C(F)(F)F | false (0) |
| CN1CCN(Cc2ccc(NC(=O)c3[nH]ncc3Nc3ncnc4sc5c(c34)CCCC5)cc2)CC1 | true (1) |
| C[C@@H](N)c1ccc(C(=O)Nc2ccnc3[nH]ccc23)cc1 | false (0) |

Let us examine a further case.
Prompt line: Recorded test outcome, item C=CCCCC(=O)CCC(=O)OCC1O[C@@H](O[C@@H]2C(O)[C@@H](OC(C)=O)C(C)O[C@H]2O[C@H](CC=C)CCCCC)C(O)[C@@H](OC(=O)/C(C)=C/C)[C@@H]1OC(=O)/C=C/c1ccccc1 (some centres not stated)
Response line: false (0)

* * *

Tested on: HCC-2998 colon
Experiment: NCI-60 one-dose screen, 48 h (100 = growth as untreated, 0 = no growth, -100 = all killed)
Settings: 10 µM
The panel holds about 83,000 compounds, 20% with a hit somewhere; the sample as a whole holds those more often.
METRIC: growth (%)
// return numeric value only (unit: %, not printed)

Use the examples below as a reference point.
| MOLECULE | growth [%] |
| --- | --- |
| CC(C)[C@@H](C)/C=C/[C@@H](C)[C@H]1CCC2=C3C=CC4=CC(=O)CC[C@]4(C)[C@H]3CC[C@@]21C | 112 |
| CN1CCN(c2ccc(OC(F)(F)F)c(Nc3ncc4c(n3)-c3c(c(C(N)=O)nn3CCO)CC4)c2)CC1 | 17 |
| COc1cccc2cc(-c3nc(C4CCC(C(=O)O)CC4)n4ncnc(N)c34)[nH]c12 (stereo not given) | 23.1 |
| CC(C)c1ccc(/C=N/Nc2nc3ccccc3s2)cc1 | 104 |

Now take the following molecule into account.
Prompt line: Supply measured growth of O=C1C=CC2(NN=C(c3ccccc3)N2c2cccc(Cl)c2)c2cccc(O)c21 (stereo not given) in your reply.
Response line: 90.8

* * *

System: KM12 colon
Assay: NCI-60 one-dose screen, 48 h
Conditions: 10 µM unless noted
The panel holds about 83,000 compounds, 20% with a hit somewhere; the sample as a whole holds those more often. Activity calls are given as the source filed them. The calls were made as follows: active = growth percent below 10; inactive = the rest.
Answer with one of the outcomes given here: true (1) for active, false (0) for inactive

Use the examples below as a reference point.
| COMPOUND | ASSIGNED CLASS |
| --- | --- |
| CCOc1cc2ncc(C#N)c(Nc3ccc(OCc4ccccn4)c(Cl)c3)c2cc1NC(=O)/C=C/CN(C)C | true (1) |
| Cc1cc(-c2cc(O)ccc2Cl)cc2nnc(Nc3ccc(OCCN4CCCC4)cc3)nc12 | true (1) |
| COC(=O)[C@]12CC[C@@H](C)[C@H](C)[C@@H]1C1=CC[C@@H]3[C@@]4(C)C(c5cnco5)=C[C@@](C)(CO)C4=CC[C@@]3(C)[C@]1(C)CC2 | false (0) |
| Cn1c(Nc2ccc(C(F)(F)F)cc2)nc2cc(Oc3ccnc(-c4ncc(C(F)(F)F)[nH]4)c3)ccc21 | false (0) |
| O=CC(OC(=O)c1ccccc1)C(OC(=O)c1ccccc1)C(COC(c1ccccc1)(c1ccccc1)c1ccccc1)OC(=O)c1ccccc1 (stereo not given) | false (0) |
| CCCc1cc2cc(-n3nc(C)c4c3CC(C)(C)CC4=O)cc(NC3CCC(O)CC3)c2c(=O)[nH]1 (stereo not given) | true (1) |

Proceed to the following item.
Prompt line: State the result this test recorded for Cc1cc2c(F)c(Oc3ncnn4cc(OC[C@@H](C)OC(=O)[C@H](C)N)c(C)c34)ccc2[nH]1 .
Response line: false (0)
